# EXPERIMENT_NOTES: Unbound AUClast in female C57BL/6J mouse lung at 30 mg/kg, po measured after 24 hrs by UPLC-MS/MS analysis
# Format: ADME, organism-based
# MEASUREMENT_PARAMETERS: in vivo
READOUT_KIND: fAUClast (h/ng/mL)
Note: unit h/ng/mL is implicit; provide only the numeric part.

{"columns": ["CHEMICAL_STRUCTURE", "READOUT_UNIT", "fAUClast"],
 "data": [
  ["Cc1nc(-c2onc(C)c2NC(=O)O[C@H](C)c2ccccc2)ccc1NC(=O)[C@H]1CCCC[C@@H]1C(=O)O", "h/ng/mL", 3967],
  ["Cc1nc(-c2onc(C)c2NC(=O)O[C@H](C)c2ccccc2Cl)ccc1NC(=O)[C@H]1CCCC[C@@H]1C(=O)O", "h/ng/mL", 4624],
  ["Cc1nc(-c2onc(C)c2Nc2cncc(OC(C)C)n2)ccc1NC(=O)[C@H]1CCCC[C@@H]1C(=O)O", "h/ng/mL", 3846],
  ["Cc1nc(-c2nnn(C)c2NC(=O)O[C@H](C)c2ccccc2Cl)ccc1NC(=O)[C@H]1CCCC[C@@H]1C(=O)O", "h/ng/mL", 257],
  ["Cc1nc(-c2cnn(C)c2NC(=O)O[C@H](C)c2ccccc2Cl)ccc1NC(=O)[C@H]1CCCC[C@@H]1C(=O)O", "h/ng/mL", 1071]
]}

# input for lookup
// field: fAUClast; key: Cc1noc(-c2ccc(NC(=O)[C@H]3CCCC[C@@H]3C(=O)O)cn2)c1NC(=O)O[C@H](C)c1ccccc1Cl ; value = 262

====

# TARGET_DESC: Lysophosphatidic acid receptor 1 (Mus musculus, UniProt P61793)
# Sequence (P61793 whole entry): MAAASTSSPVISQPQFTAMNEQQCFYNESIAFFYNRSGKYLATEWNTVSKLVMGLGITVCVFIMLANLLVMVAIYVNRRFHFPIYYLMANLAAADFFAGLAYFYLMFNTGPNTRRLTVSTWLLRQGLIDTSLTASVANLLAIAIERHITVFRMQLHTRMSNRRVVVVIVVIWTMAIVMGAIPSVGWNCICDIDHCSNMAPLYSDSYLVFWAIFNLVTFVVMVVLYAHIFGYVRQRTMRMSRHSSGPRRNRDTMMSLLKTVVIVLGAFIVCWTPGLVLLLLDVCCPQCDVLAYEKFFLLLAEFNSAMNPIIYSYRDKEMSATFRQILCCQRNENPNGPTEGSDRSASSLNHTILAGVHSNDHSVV
# EXPERIMENT_NOTES: Antagonist activity at mouse LPA1 transfected in human HeLa cells incubated for 30 mins by FLIPR-based calcium mobilization assay
# Assay type: cell-based
READOUT_KIND: IC50 (nM)
Note: unit nM is implicit; provide only the numeric part.

Known results for compounds:
{"columns": ["CHEMICAL_STRUCTURE", "TARGET_DESC", "IC50 [nM]"],
 "data": [
  ["Cc1nc(-c2onc(C)c2NC(=O)O[C@H](C)c2ccccc2)ccc1NC(=O)[C@H]1CCCC[C@@H]1C(=O)O", "Lysophosphatidic acid receptor 1 (Mus musculus, UniProt P61793)", 12.6],
  ["Cc1nc(-c2onc(C)c2Nc2cncc(OC(C)C)n2)ccc1NC(=O)[C@H]1CCCC[C@@H]1C(=O)O", "Lysophosphatidic acid receptor 1 (Mus musculus, UniProt P61793)", 39.8],
  ["Cc1nc(-c2nnn(C)c2NC(=O)O[C@H](C)c2ccccc2Cl)ccc1NC(=O)[C@H]1CCCC[C@@H]1C(=O)O", "Lysophosphatidic acid receptor 1 (Mus musculus, UniProt P61793)", 15.8],
  ["Cc1noc(-c2ccc(NC(=O)[C@H]3CCCC[C@@H]3C(=O)O)cn2)c1NC(=O)O[C@H](C)c1ccccc1Cl", "Lysophosphatidic acid receptor 1 (Mus musculus, UniProt P61793)", 31.6]
]}

// field: IC50; key: Cc1nc(-c2cnn(C)c2NC(=O)O[C@H](C)c2ccccc2Cl)ccc1NC(=O)[C@H]1CCCC[C@@H]1C(=O)O ; value = 25.1

====

# Test system: Mus musculus
# EXPERIMENT_NOTES: Inhibition of LPA-stimulated histamine release in male CD1 mouse plasma assessed as effective dose administered as po dose pretreated for 30 mins followed by LPA addition measured after 2 mins by enzyme immunoassay
# Assay type: functional
# MEASUREMENT_PARAMETERS: 32 min
# key: entry, value: ED50
Note: unit mg/kg is implicit; provide only the numeric part.

// field: ED50; key: Cc1nc(-c2onc(C)c2NC(=O)O[C@H](C)c2ccccc2Cl)ccc1NC(=O)[C@H]1CCCC[C@@H]1C(=O)O ; value = 0.04

// field: ED50; key: Cc1noc(-c2ccc(NC(=O)[C@H]3CCCC[C@@H]3C(=O)O)cn2)c1NC(=O)O[C@H](C)c1ccccc1Cl ; value = 0.1

// field: ED50; key: Cc1nc(-c2onc(C)c2NC(=O)O[C@H](C)c2ccccc2)ccc1NC(=O)[C@H]1CCCC[C@@H]1C(=O)O ; value = 0.1

// field: ED50; key: Cc1nc(-c2nnn(C)c2NC(=O)O[C@H](C)c2ccccc2Cl)ccc1NC(=O)[C@H]1CCCC[C@@H]1C(=O)O ; value = 0.1
